Biological target: wild-type human progesterone receptor (Homo sapiens, UniProt P06401)
Sequence (P06401 1-933): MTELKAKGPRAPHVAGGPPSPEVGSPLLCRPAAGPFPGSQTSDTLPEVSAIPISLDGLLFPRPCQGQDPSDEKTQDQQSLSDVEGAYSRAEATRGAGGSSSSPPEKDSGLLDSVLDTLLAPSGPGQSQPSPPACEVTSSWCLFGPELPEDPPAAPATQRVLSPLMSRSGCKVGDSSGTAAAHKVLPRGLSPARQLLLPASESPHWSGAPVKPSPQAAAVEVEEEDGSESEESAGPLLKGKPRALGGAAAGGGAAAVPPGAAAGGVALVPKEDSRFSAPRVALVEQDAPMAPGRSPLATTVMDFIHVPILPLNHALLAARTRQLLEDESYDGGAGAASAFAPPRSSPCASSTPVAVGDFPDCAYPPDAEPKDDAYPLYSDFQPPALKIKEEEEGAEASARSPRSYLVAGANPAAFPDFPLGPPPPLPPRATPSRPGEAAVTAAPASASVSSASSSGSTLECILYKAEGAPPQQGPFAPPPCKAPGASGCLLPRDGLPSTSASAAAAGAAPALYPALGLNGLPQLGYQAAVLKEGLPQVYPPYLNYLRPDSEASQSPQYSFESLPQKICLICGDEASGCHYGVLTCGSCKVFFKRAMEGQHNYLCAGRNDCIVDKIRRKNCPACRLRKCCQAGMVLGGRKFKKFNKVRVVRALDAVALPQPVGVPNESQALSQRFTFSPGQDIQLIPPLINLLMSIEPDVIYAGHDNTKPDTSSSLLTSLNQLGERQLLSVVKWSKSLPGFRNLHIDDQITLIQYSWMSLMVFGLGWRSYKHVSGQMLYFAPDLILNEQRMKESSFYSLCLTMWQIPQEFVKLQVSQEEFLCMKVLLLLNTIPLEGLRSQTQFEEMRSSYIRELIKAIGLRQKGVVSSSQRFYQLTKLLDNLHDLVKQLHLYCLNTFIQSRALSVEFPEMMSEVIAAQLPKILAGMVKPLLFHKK
Assay: Hormone-binding Whole Cell Assay with Scatchard analysis, COS cells expressing wild-type receptor
Conditions: COS cells infected with 250 ng receptor DNA, 50-6400 pM [3H]R5020 overnight, Scatchard analysis (FIG. 7B), read-out: dissociation constant
OBSERVED PROPERTY: pKd
Remember the convention: pKd equals -log10 of concentration in molar.

Prompt: Reported pKd, compound CCC(=O)[C@@]1(C)CC[C@H]2[C@@H]3CCC4=CC(=O)CCC4=C3CC[C@@]21C [R5020] : ____
Completion: 9.60
